Tested on: HOP-92 NSCLC
Experiment: NCI-60 one-dose screen, 48 h
Conditions: 10 µM unless noted
This is part of a sample that, as a whole, favours compounds with a hit. Of some 83,000 tested, about 20% had one in any assay. Activity calls are given as the source filed them. The calls were made as follows: active = growth percent below 10; inactive = the rest.
Labels: 1 = active, 0 = inactive

[
  {
    "compound": "CCCCC1COc2cccc3c(SCC(=O)N(C)c4cccc(Cl)c4)cc[n+]1c23 (centres undefined)",
    "cat": 0
  },
  {
    "compound": "COc1ccc(/C=C2\\COc3ccc(O)cc3C2=O)c(OC)c1",
    "cat": 0
  },
  {
    "compound": "c1ccc2c(c1)ncn2-c1nc2ccccc2n2c1nc1ccccc12",
    "cat": 0
  },
  {
    "compound": "CC(C)n1nc(C#Cc2cccc(O)c2)c2c(N)ncnc21",
    "cat": 1
  },
  {
    "compound": "Cc1c(C(=O)O[C@H]2[C@@H]3[C@H](C)CC[C@H]3[C@]3(C)O[C@@]2(C2CCCCC2)C[C@H]3OC(=O)CO)ccc2ccccc12",
    "cat": 0
  },
  {
    "compound": "C=C1C(=O)O[C@H]2[C@H]1CC/C(COC(=O)NCc1ccc(Cn3c(=O)sn(CCCCl)c3=O)cc1)=C\\CC[C@@]1(C)O[C@@H]21",
    "cat": 1
  },
  {
    "compound": "CC(/C=N/NC(=O)c1cc(-c2ccco2)[nH]n1)=C\\c1ccccc1",
    "cat": 0
  },
  {
    "compound": "O=C1C(Cl)C(c2ccccc2Cl)N1n1cnnc1 (centres undefined)",
    "cat": 0
  },
  {
    "compound": "CCOC(=O)C1C(=O)C=C(c2cnccn2)CC1c1ccc(OC)c(OC)c1 (centres undefined)",
    "cat": 0
  },
  {
    "compound": "Cc1cccc(-c2cc(O)c(C(=O)N3CCOCC3)s2)c1",
    "cat": 0
  },
  {
    "compound": "C=C1C(=O)O[C@H]2[C@H]1CC/C(Cn1cc(CNCCc3c[nH]c4ccccc34)nn1)=C\\CC[C@@]1(C)O[C@@H]21",
    "cat": 0
  },
  {
    "compound": "O=C(CC12CC3CC(CC(C3)C1)C2)NCCOCCOCCNC(=O)c1cc2c(o1)C(=O)c1ccccc1C2=O",
    "cat": 1
  },
  {
    "compound": "C=C(C=O)C1CCC2(C(=O)O)CCC3(C)C(CCC4C5(C)CCC(O)C(C)(C)C5CCC43C)C12 (centres undefined)",
    "cat": 0
  },
  {
    "compound": "CCCCOc1nc2ccc(Cl)cc2cc1/C=C/C(=O)/C=C1/CC(c2cc3cc(Cl)ccc3nc2OCCCC)Nc2ccccc2N1 (centres undefined)",
    "cat": 0
  }
]

----------
Overview of reported growth across a group of molecules:
Tested on: NCI-H226 lung
Assay: NCI-60 one-dose screen, 48 h (100 = growth as untreated, 0 = no growth, -100 = all killed)
Details: 10 µM unless noted
About 83,000 compounds went through this panel and 20% of them were active in at least one assay; those are over-represented in the sample as a whole.
property: growth (%)

[
  {
    "molecule": "CCN(CC)CCCC(C)NCc1ccccc1 (configuration not stated)",
    "tested.target": "NCI-H226 lung",
    "property": "growth",
    "meas.value": 109
  },
  {
    "molecule": "COc1ccc(OC)c(C(=O)Nc2cccc(-c3cc(=O)c4ccccc4o3)c2)c1",
    "tested.target": "NCI-H226 lung",
    "property": "growth",
    "meas.value": 92.4
  },
  {
    "molecule": "C=C(Cl)COC(=O)C(C)(C)O",
    "tested.target": "NCI-H226 lung",
    "property": "growth",
    "meas.value": 113
  },
  {
    "molecule": "CC1=NN(c2cccc(Cl)c2)C(=O)/C1=C\\c1cn(CC(O)CN2CCCCC2)c2ccccc12 (configuration not stated)",
    "tested.target": "NCI-H226 lung",
    "property": "growth",
    "meas.value": 96.8
  },
  {
    "molecule": "COc1ccc(OC)c(Nc2nc3nonc3nc2Nc2cccc(Br)c2)c1",
    "tested.target": "NCI-H226 lung",
    "property": "growth",
    "meas.value": 13.4
  },
  {
    "molecule": "c1ccc2[nH]c(SSc3nc4ncncc4[nH]3)nc2c1",
    "tested.target": "NCI-H226 lung",
    "property": "growth",
    "meas.value": 57.6
  },
  {
    "molecule": "Cc1cc(=O)[nH]c(N/N=C/c2cc(Br)ccc2O)n1",
    "tested.target": "NCI-H226 lung",
    "property": "growth",
    "meas.value": 40.5
  },
  {
    "molecule": "CCOC(=O)N1CCc2c(sc3c2C(=O)N[C@H](c2ccc(OC)cc2)N3)C1",
    "tested.target": "NCI-H226 lung",
    "property": "growth",
    "meas.value": 94.7
  },
  {
    "molecule": "CCOC(=O)C(O)C(O)(c1ccccc1)c1ccccc1 (configuration not stated)",
    "tested.target": "NCI-H226 lung",
    "property": "growth",
    "meas.value": 90.2
  },
  {
    "molecule": "CCCCC1COc2cccc3c(SCC(=O)N(C)c4cccc(Cl)c4)cc[n+]1c23 (configuration not stated)",
    "tested.target": "NCI-H226 lung",
    "property": "growth",
    "meas.value": 103
  },
  {
    "molecule": "CCCCS(=O)(=O)Oc1ccc(-c2nc(C)c(C(=O)OCC)s2)cc1C=O",
    "tested.target": "NCI-H226 lung",
    "property": "growth",
    "meas.value": 87.1
  },
  {
    "molecule": "COc1ccc(-c2nnc(-c3ccc4c(c3)nc(-c3ccccc3)n4C3CCCCC3)o2)cc1",
    "tested.target": "NCI-H226 lung",
    "property": "growth",
    "meas.value": 46.4
  },
  {
    "molecule": "C=CCOc1cccc(/C=C2\\SC(=Nc3ccc(O)cc3)NC2=O)c1",
    "tested.target": "NCI-H226 lung",
    "property": "growth",
    "meas.value": -9.25
  },
  {
    "molecule": "NS(=O)(=O)c1cn(-c2ncnc3nc[nH]c23)ccc1=O",
    "tested.target": "NCI-H226 lung",
    "property": "growth",
    "meas.value": 78
  },
  {
    "molecule": "O=C(c1ccccc1)c1ccc(N2C(=O)C3C4c5ccccc5C(/C=C/C(=O)c5ccccn5)(c5ccccc54)C3C2=O)cc1 (configuration not stated)",
    "tested.target": "NCI-H226 lung",
    "property": "growth",
    "meas.value": 12.7
  },
  {
    "molecule": "Cc1nc(C)c(-c2nn3c(-c4cccc(F)c4)nnc3s2)s1",
    "tested.target": "NCI-H226 lung",
    "property": "growth",
    "meas.value": 102
  },
  {
    "molecule": "CCCCCCCCc1cc[n+](CC(=O)c2ccc(Br)cc2)cc1",
    "tested.target": "NCI-H226 lung",
    "property": "growth",
    "meas.value": 53.6
  }
]
